Hey, just so you know, these numbers are from PubChem BioAssay.

Entries annotated with measured percent of DMSO control GFP
test: rapamycin-like changes in RPL19A-GFP expression – cell-based, S. cerevisiae, multiplex flow cytometry, primary screen (AID 1862);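 note: lower values mimic rapamycin by blocking the RPL19A rise seen in DMSO cells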; details: S. cerevisiae RPL19A-GFP strain, flow cytometry fluorescence, 3 h; at 10 µM; hits give low values
Results filed as inconclusive are left out.
Reply with just the number (in %).

Study these solved cases before continuing.
COc1c(O)ccc2c1CN1CCc3cc4c(cc3C1C2)OCO4 (stereo not drawn)	107
COC(=O)c1ccc(NC(=O)c2ccccc2SC)cc1	97.8
CCOC(=O)C(=Cc1ccccc1OC)C(=O)OCC	95

Report percent of DMSO control GFP, nothing else, for this molecule: COc1ccc2c(c1)c(=O)oc1cc3occ(C(C)(C)C)c3cc12
103

Give recorded percent of DMSO control GFP. Cc1cccc(C)c1NC(=O)C1CCCCN1C (stereo not drawn)
102

// Input: O=C1c2cccc3cccc(c23)C(=O)N1c1ccccn1 . Output its percent of DMSO control GFP only.
107

Tell me measured percent of DMSO control GFP for Cc1ccccc1-c1nn(-c2ccc(F)cc2F)cc1CNCCN(C)C please.
106

Quickly give me recorded percent of DMSO control GFP for Cc1cc(=O)c2c(O)c(O)ccc2o1
102
